test: yeast display, Sf9 membrane polyspecificity reagent, FACS + sequencing; frameworks hold sequencing errors
quantityMeasured: polyreactivity (PSR sort gate)

- QVQLVESGGGLVQAGGSLRLSCAASGFTFVYNAMGWYRQAPGKERELVAAISSSGGRTYYADSVKGRFTISRDNAKNTVYLQMNSLKPEDTAVYYCAVEYPVYYYVEYDYWGQGTQVTVSS: high polyreactivity
- QVQLVESGGGLVQAGGSLRLSCSASGRIFDKYTMGWYRQAPGKERELVATITRGGVSTYYADSVKGRFTISRDNAKNTVYLQMTSLKPEDTAVYYCNAVWRLRVRYGYWGQGTQVTVSS: high polyreactivity

----------
assay: yeast display, Sf9 membrane polyspecificity reagent, FACS + sequencing; frameworks hold sequencing errors
quantityMeasured: polyreactivity (PSR sort gate)

* QFQLVESGGGLVPARGSLRLSCAASGLIFKRNAMGWYRQAPGKERELDASNSGRGGSTYYADSLTGRFTISRDNAKKTVYLQMNSLKPEDTAVYFCAADGPPLGRPSYRLFYGYDYWGQGSQVTVSS | high polyreactivity
* QRQLVESGGGLVQAGGRLRLSCAASGMTVWDYAMGWYRHATGKERQLVAAISGSGARTYYADSVKWRFTISRDTAKNTVYLQMNSLNPEDTAVYYCAARAVRATAKYEYWGQGTQVTVSS | high polyreactivity
* QVQLVESRRGLVQAGASLPLRCAASVSTLDTYAMGLYRQAPGKERELVAAISRSGNSTYYADSVKGRFTISRDNAKNTVYLQMNSLKPEDTAVYYCAAYGPRVNGEIGREYYYWGQGTQVTVSS | low polyreactivity
* QVQLVESGGGLVQAGGSLRLSCAASGSIFVYNAMGWYSPAPGQERELVAAITYSGGRTYYADSVKGRFTISRDNAKNTVYVQMNSLKPEDTAVDFCAADLTSKSSPQGYRYDYWGQGTQVTVSS | low polyreactivity
* QVQLVESGGGLVQAGGSVRLSCGASGSIFLGNSMGWYRQAPGTLRELVAAISSITGSTYYADSVKGRFSISRDIAKNTVYLQMNRLKQEETGVYYCARVPDTEGEYWGQGTQVTVSS | high polyreactivity

meta.source: the nanobody polyreactivity screen of Harvey et al. (2022)
